Provenance of the data: patent US20250032632A1

Target: T1, rat cMET (ELISA antigen) (rat, UniProt P97523 25-935, limits assumed)
T1 construct: also called rMET
T1 sequence (P97523 25-935 limits assumed): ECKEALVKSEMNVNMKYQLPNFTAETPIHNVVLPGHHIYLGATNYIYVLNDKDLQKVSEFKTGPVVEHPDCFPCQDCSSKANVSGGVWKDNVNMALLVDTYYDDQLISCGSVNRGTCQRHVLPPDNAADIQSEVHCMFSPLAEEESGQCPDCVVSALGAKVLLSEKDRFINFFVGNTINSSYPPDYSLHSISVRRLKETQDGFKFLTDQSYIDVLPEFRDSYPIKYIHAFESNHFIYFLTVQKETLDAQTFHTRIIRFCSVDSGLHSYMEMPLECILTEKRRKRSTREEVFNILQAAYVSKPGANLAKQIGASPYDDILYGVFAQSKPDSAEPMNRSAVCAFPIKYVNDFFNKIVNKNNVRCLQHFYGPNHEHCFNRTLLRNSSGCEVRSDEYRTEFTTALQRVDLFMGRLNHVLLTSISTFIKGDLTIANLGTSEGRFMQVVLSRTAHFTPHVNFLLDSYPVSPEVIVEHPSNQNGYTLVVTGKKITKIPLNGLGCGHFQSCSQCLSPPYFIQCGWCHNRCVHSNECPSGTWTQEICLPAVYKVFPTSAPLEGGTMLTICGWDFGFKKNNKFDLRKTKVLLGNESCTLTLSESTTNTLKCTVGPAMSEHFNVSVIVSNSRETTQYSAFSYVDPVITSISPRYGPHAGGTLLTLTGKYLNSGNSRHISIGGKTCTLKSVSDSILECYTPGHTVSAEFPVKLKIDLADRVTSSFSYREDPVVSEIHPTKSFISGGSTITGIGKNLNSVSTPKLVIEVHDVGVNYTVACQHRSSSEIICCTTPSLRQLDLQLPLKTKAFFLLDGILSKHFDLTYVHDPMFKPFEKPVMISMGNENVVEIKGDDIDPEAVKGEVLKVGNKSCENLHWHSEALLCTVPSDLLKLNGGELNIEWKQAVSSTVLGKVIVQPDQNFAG
Experiment: ELISA on rat cMET, relative to parental P3D12

[
  {
    "binder": "G2vkf (humanized P3D12, VH-ven + VL-fra) (antibody, V domains shown, Humanized and isotype switched version of P3D12) VH: QVQLVQSGAEVAKPGASVKMSCKASGYTFTSYWMHWVKQAPGQGLDWIGYIKPSTDNTEYNQKFKDKATLTADKSTSTAYMQLSSLRSEDTAVYYCARSYGNYPLMDYWGQGTTVTVSS VL: QIVLTQSPAILSLSPGERATLSCSASSSVTSNYLYWYQQKPGSSPKLLIYSTSNLASGVPARFSGSGSGTSYTLTISSLEAEDAASYFCHQWSSYPPTFGSGTKLEIKR",
    "ELISA rMET vs parental": "1 fold vs parental"
  },
  {
    "binder": "G2fkc (humanized P3D12, VH-fra + VL-cdr) (antibody, V domains shown, Humanized and isotype switched version of P3D12) VH: QVQLQQSGAEVKKPGASVKVSCKASGYTFTSYWMHWVKQRPGQGLDWIGYIKPSTDNTEYNQKFKDRVTLTADKSTSTAYMQLSNLISEDTAVYYCARSYGNYPLMDYWGQGTSVTVSS VL: QIVLTQSPATLSLSPGERATLSCSASSSVTSNYLYWYQQKPGSSPRLLIYSTSNLASGVPARFSGSGSGTSYTLTISRLEPEDFASYFCHQWSSYPPTFGSGTKLEIKR",
    "ELISA rMET vs parental": "2.3 fold vs parental"
  },
  {
    "binder": "G2fkf (humanized P3D12, VH-fra + VL-fra) (antibody, V domains shown, Humanized and isotype switched version of P3D12) VH: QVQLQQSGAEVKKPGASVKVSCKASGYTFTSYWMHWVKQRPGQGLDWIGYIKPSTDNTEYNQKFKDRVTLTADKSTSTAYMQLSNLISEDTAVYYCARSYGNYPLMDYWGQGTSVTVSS VL: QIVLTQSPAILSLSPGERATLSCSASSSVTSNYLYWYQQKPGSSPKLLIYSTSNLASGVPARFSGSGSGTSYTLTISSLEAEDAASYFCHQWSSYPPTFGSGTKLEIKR",
    "ELISA rMET vs parental": "1.4 fold vs parental"
  }
]
